Below are compounds with their pKi as measured on Adenosine receptor A1 (Homo sapiens).
Sequence (P30542 whole entry): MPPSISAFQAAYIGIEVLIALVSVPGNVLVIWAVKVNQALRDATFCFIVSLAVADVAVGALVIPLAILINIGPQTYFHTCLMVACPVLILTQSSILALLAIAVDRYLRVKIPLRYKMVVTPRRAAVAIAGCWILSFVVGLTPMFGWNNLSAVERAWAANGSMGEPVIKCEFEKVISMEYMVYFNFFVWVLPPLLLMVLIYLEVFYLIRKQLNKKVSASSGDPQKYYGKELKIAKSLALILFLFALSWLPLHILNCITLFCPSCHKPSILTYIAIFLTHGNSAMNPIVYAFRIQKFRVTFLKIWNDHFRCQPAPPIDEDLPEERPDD
Interpret pKi as the negative base-10 log of the concentration measured in mol/L.

compound="CCOC(=O)C(CO)Nc1nc2nn(C)cc2c2nc(-c3ccco3)nn12 (racemic)" observed_value=6.51
compound=COC(=O)[C@@H]1CCCN1c1nc2nn(C)cc2c2nc(-c3ccco3)nn12 observed_value=5.64
compound=CCOC(=O)CC[C@H](Nc1nc2nn(C)cc2c2nc(-c3ccco3)nn12)C(=O)OCC observed_value=6.04

Ask | Kindly state the measured pKi obtained for CCOC(=O)C[C@H](Nc1nc2nn(C)cc2c2nc(-c3ccco3)nn12)C(=O)OCC with Adenosine receptor A1 (Homo sapiens).
Reply | 6.26

Ask | Kindly state the measured pKi obtained for CCOC(=O)CCCNc1nc2nn(C)cc2c2nc(-c3ccco3)nn12 with Adenosine receptor A1 (Homo sapiens).
Reply | 6.05
